# Measured target: PDE7 (PDE7A) (Homo sapiens, UniProt Q13946)
# Construct: His tag (hexahistidine, pcDNA4/HisMax) (N); made in house
# Sequence (Q13946 1-456 isoform Q13946-2): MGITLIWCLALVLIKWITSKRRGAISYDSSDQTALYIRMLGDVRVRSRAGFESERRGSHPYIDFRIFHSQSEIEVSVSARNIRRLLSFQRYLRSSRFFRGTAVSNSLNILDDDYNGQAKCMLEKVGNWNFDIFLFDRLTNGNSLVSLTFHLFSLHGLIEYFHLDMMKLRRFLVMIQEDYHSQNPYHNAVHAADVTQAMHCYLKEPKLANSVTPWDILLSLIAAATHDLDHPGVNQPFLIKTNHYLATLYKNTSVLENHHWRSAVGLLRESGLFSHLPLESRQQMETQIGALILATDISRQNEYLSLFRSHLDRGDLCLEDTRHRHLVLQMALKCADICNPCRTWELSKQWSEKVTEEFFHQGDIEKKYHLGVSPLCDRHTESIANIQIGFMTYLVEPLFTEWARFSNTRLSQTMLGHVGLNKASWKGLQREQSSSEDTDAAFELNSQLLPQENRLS
# Method: PDE assay, recombinant human PDE7A
# Assay type: biochemical
# Protocol conditions: substrate about 4.8 nM [3H]-cAMP and 0.1 μM cAMP
pIC50: −log10 of the molar value.
Observed property: pIC50

Exercise: Please indicate pIC50 recorded for COc1ccc(-c2cc(N3CCCC3)nc(/C=C/c3nc(-n4ccnc4)c4ccccc4n3)n2)cc1OC [Compound A]
Key: < 6.00

---

# Measured target: PDE9 (PDE9A) (Homo sapiens, UniProt O76083)
# Construct: FLAG (pFLAG-CMV-2) (N)
# Sequence (O76083 whole entry): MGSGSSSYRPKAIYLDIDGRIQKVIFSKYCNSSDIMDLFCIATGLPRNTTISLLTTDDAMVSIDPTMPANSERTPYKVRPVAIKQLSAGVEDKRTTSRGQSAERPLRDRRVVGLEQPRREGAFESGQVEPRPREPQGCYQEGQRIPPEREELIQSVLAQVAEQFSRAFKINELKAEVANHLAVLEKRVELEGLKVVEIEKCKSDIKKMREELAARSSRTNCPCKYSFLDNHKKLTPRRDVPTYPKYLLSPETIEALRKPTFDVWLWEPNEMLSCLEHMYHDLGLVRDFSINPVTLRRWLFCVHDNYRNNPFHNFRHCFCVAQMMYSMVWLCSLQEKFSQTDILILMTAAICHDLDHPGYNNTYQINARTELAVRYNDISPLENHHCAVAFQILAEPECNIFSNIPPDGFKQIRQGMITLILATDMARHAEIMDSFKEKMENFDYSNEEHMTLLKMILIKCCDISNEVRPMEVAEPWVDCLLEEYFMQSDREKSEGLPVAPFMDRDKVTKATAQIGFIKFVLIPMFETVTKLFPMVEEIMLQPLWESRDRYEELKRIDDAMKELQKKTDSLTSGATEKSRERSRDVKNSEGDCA
# Method: PDE assay, recombinant human PDE9A
# Protocol conditions: substrate about 12 nM [3H]-cGMP and 0.1 μM cGMP
# Experimental: Based on the information of cDNA sequence of human PDE9A (Genbank/EMBL Accession No. AF048837) (Fisher et al., J. Biol. Chem., 1998, vol. 273, pp. 15559-15564, […]), a cDNA encoding human PDE9A was cloned by PCR method. Using this cDNA, a recombinant protein of human PDE9A was prepared as follows. […]
Observed property: IC50

Exercise: Please indicate IC50 recorded for `COc1ccc(-c2cc(N3CCCC3)nc(/C=C/c3nc(-n4ccnc4)c4ccccc4n3)n2)cc1OC`
Key: > 1000 nM

---

# Measured target: PDE11 (PDE11A) (Homo sapiens, UniProt Q9HCR9)
# Construct: His tag (hexahistidine, pcDNA4/HisMax) (N)
# Sequence (Q9HCR9 whole entry): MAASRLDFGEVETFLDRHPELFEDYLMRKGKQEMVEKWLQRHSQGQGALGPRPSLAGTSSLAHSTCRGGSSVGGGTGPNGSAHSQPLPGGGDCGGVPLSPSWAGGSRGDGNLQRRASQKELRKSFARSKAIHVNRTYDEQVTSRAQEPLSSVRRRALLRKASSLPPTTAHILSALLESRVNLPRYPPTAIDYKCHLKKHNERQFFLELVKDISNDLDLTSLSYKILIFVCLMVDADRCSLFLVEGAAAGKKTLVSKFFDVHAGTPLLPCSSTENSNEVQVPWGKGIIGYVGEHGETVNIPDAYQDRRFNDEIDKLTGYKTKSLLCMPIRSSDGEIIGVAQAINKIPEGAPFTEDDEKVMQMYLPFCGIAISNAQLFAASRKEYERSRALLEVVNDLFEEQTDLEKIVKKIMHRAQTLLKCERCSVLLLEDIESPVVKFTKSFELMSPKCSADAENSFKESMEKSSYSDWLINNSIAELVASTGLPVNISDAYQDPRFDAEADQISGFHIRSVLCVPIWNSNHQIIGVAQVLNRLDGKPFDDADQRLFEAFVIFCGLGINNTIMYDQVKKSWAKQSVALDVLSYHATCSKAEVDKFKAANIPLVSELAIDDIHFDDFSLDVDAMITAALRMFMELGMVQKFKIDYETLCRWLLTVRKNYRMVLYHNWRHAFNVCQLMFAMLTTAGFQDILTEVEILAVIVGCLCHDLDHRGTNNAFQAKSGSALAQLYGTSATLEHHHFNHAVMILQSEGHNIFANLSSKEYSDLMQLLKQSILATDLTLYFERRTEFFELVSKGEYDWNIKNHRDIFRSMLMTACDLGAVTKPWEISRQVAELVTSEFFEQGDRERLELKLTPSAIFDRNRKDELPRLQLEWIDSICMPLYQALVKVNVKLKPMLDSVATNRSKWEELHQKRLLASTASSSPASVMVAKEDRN
# Method: PDE assay, recombinant human PDE11A
# Protocol conditions: substrate about 12 nM [3H]-cGMP and 1 μM cGMP
pIC50: −log10 of the molar value.
Observed property: pIC50

Exercise: Please indicate pIC50 recorded for COc1ccc(-c2cc(N3CCCC3)nc(/C=C/c3nc(-n4ccnc4)c4ccccc4n3)n2)cc1OC [Compound A]
Key: < 6.00

---

# Measured target: PDE4
# Method: PDE assay, PDE4 enzyme solution from dog lung
# Protocol conditions: substrate about 4.8 nM [3H]-cAMP and 1 μM cAMP
Observed property: IC50
Please answer using a numeric value trailed by its unit.

Exercise: Please indicate IC50 recorded for `COc1ccc(-c2cc(N3CCCC3)nc(/C=C/c3nc(-n4ccnc4)c4ccccc4n3)n2)cc1OC`
Key: 160 nM

Hello, the source for this data is patent US8338420B1, in case you need it.
